Origin of values: the kinase profiling compilation of Christmann-Franck et al. (2016)

- measured_target: MYLK (human) (UniProt Q15746)
- Sequence (Q15746 whole entry, looked up): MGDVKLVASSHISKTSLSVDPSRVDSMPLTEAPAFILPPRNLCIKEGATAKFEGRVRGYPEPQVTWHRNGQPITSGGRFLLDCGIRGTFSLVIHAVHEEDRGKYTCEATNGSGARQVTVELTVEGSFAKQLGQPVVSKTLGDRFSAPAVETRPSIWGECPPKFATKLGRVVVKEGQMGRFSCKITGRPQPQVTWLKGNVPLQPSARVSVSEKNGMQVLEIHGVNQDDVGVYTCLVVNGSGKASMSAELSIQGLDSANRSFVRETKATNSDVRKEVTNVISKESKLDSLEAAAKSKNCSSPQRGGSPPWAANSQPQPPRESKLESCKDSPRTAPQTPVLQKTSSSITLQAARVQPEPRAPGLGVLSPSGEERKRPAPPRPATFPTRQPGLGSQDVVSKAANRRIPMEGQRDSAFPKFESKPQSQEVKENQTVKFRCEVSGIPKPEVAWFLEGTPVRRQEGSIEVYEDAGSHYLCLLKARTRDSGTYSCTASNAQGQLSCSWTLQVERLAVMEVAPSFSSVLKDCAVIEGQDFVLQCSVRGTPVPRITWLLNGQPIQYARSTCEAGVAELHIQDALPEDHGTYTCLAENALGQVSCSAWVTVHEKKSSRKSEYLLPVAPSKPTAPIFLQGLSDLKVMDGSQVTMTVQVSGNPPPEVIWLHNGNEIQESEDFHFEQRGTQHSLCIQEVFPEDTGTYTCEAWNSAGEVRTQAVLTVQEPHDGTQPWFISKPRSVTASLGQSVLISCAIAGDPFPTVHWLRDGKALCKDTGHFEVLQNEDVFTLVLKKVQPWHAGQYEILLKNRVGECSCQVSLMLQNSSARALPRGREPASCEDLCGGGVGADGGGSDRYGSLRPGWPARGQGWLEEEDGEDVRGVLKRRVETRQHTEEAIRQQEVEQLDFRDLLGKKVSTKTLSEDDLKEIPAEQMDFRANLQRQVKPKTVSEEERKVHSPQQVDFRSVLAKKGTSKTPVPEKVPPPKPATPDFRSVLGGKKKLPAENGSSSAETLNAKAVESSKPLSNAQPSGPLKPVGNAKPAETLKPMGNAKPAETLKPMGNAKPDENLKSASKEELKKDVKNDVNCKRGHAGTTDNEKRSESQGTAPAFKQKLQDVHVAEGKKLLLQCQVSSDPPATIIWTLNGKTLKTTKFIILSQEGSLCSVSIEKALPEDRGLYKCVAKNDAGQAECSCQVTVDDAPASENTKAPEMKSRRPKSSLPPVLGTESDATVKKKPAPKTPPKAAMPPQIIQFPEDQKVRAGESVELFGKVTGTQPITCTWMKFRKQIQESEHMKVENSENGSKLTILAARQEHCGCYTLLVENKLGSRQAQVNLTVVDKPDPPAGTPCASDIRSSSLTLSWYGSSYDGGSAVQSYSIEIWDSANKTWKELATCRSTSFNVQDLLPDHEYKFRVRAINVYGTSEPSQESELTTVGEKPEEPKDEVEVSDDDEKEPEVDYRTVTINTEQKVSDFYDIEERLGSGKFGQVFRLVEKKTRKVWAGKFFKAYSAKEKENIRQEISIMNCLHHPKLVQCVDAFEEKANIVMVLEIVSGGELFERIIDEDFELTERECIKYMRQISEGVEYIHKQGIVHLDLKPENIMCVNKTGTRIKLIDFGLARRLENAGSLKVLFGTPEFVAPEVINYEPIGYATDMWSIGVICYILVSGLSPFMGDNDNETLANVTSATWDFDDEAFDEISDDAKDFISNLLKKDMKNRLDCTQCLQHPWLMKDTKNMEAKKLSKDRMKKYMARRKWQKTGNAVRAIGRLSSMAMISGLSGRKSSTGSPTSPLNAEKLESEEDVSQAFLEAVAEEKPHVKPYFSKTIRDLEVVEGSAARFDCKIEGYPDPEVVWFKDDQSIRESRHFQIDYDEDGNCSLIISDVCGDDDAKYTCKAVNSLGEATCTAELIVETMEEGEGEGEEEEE
- protocol_text: radiometric filter-binding kinase assay
- experimental_parameters: compound 0.1 µM
measure: residual activity

compound="CC1=C(CO)C(=O)O[C@@H]([C@@H](C)[C@H]2CC[C@H]3[C@@H]4C[C@H]5O[C@]56[C@@H](O)C=CC(=O)[C@]6(C)C4CC[C@]23C)C1 (stereo partly drawn)" measure="residual activity" value_observed=113%
compound=Cc1ccc(-c2ccc3c(ccc4sc5c(c43)NC[C@@H](C)NC5=O)n2)cn1 measure="residual activity" value_observed=118%
compound=O=C(O)c1ccc(-c2c[nH]c3ncc(-c4ccccc4)cc23)cc1C1CCCC1 measure="residual activity" value_observed=87%
compound=COc1ccc(-n2ncc3cnc(Nc4cc(OC)c(OC)c(OCCCN5CCN(C)CC5)c4)nc32)cc1 measure="residual activity" value_observed=100%
compound=Cc1cccc(-c2nn(C(=S)Nc3ccccc3)cc2-c2ccnc3ccccc23)n1 measure="residual activity" value_observed=104%
compound=Cc1cc(NC(=O)c2cccc(NC(=O)/C=C/CN(C)C)c2)ccc1Nc1nccc(-c2cccnc2)n1 measure="residual activity" value_observed=97%
compound=CN1CCN(CCOc2cc(OC3CCOCC3)c3c(Nc4c(Cl)ccc5c4OCO5)ncnc3c2)CC1 measure="residual activity" value_observed=97%
compound=C=CC(=O)N1CCC[C@@H](n2nc(-c3ccc(Oc4ccccc4)cc3)c3c(N)ncnc32)C1 measure="residual activity" value_observed=79%
